# experimentalSystem: Vasoactive intestinal polypeptide receptor 2 (Homo sapiens) (UniProt P41587)
# Sequence (whole entry): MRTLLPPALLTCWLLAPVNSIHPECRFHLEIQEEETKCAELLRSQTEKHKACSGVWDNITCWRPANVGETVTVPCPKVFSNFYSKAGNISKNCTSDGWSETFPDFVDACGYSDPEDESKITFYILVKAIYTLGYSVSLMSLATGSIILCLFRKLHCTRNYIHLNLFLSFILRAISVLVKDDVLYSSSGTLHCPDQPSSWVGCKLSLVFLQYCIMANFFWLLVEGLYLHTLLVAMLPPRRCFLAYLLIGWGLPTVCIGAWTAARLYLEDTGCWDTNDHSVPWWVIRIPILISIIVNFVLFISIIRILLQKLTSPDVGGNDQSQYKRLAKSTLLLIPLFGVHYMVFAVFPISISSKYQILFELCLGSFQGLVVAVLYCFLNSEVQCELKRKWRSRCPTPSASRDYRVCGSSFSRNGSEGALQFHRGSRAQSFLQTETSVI
# methodDescription: Antagonist activity at recombinant human N-terminal signal peptide/FLAG epitope-tagged Rluc8-fused VIPR2 expressed in HEK293 cells assessed as inhibition of VIP-induced human mVenus-beta-arrestin2 binding at 0.5 uM preincubated for 5 mins with luciferin, coelenterazine H followed by VIP addition measured after 5 mins by BRET assay relative to control
# Format: cell-based
Below, each entry is listed alongside its reported inhibition.

input: Any idea what its inhibition is? The compound is `O=C(NC[C@@H](O)C[C@@H](Cc1ccccc1)C(=O)N[C@H]1c2ccccc2C[C@H]1O)c1ccc2ccccc2c1`
output: -2.9 to 16.6%

input: Any idea what its inhibition is? The compound is `CS(=O)(=O)NC[C@@H](O)C[C@@H](Cc1ccccc1)C(=O)N[C@H]1c2ccccc2C[C@H]1O`
output: 17.3 to 20.9%

input: Any idea what its inhibition is? The compound is `O=C(CCCCl)NC[C@@H](O)C[C@@H](Cc1ccccc1)C(=O)N[C@H]1c2ccccc2C[C@H]1O`
output: 18.5 to 19.2%

###

# experimentalSystem: Vasoactive intestinal polypeptide receptor 2 (Homo sapiens) (UniProt P41587)
# Sequence (whole entry): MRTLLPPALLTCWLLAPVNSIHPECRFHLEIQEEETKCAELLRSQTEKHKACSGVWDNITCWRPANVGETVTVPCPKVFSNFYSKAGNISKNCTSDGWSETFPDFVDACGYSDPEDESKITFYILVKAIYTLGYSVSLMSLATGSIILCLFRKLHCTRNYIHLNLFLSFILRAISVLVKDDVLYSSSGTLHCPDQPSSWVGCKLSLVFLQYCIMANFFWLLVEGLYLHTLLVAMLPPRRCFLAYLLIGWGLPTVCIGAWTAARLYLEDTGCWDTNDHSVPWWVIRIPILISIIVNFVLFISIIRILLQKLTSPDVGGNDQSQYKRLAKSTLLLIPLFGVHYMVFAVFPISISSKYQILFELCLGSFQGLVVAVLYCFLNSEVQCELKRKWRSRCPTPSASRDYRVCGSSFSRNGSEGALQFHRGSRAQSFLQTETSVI
# methodDescription: Antagonist activity at recombinant human N-terminal signal peptide/FLAG epitope-tagged Rluc8-fused VIPR2 expressed in HEK293 cells assessed as inhibition of VIP-induced human mVenus-beta-arrestin2 binding at 0.5 uM preincubated for 5 mins with luciferin, coelenterazine H followed by VIP addition measured after 5 mins by BRET assay relative to control
# Format: cell-based
Below, each entry is listed alongside its reported inhibition.

input: Any idea what its inhibition is? The molecule is `O=C(NCc1ccccc1)[C@@H](Cc1ccccc1)C[C@H](O)CNS(=O)(=O)c1ccc([N+](=O)[O-])cc1`
output: -0.3 to 6.05%

input: Any idea what its inhibition is? The molecule is `C[C@H](CC(C)(C)C)NC(=O)[C@@H](Cc1ccccc1)C[C@H](O)CNS(=O)(=O)c1ccc([N+](=O)[O-])cc1`
output: 13.8 to 36.8%

input: Any idea what its inhibition is? The molecule is `O=C(NCc1ccccc1)[C@H](Cc1ccccc1)C[C@H](O)CNS(=O)(=O)c1ccc([N+](=O)[O-])cc1`
output: 1.8 to 10.7%

input: Any idea what its inhibition is? The molecule is `O=C(NC[C@@H](O)C[C@@H](Cc1ccccc1)C(=O)N[C@H]1c2ccccc2C[C@H]1O)c1c(Cl)cc(Cl)cc1Cl`
output: 21.9 to 23.9%

input: Any idea what its inhibition is? The molecule is `CCN(CC)C(=O)[C@H](Cc1ccccc1)C[C@H](O)CNS(=O)(=O)c1ccc([N+](=O)[O-])cc1`
output: -5.4 to 0.7%

input: Any idea what its inhibition is? The molecule is `O=C(N[C@H]1c2ccccc2C[C@H]1O)[C@H](Cc1ccccc1)C[C@H](O)CNS(=O)(=O)c1ccccc1F`
output: 5.3 to 40.1%

input: Any idea what its inhibition is? The molecule is `COc1cc(C(=O)NC[C@@H](O)C[C@@H](Cc2ccccc2)C(=O)N[C@H]2c3ccccc3C[C@H]2O)cc(OC)c1OC`
output: 13.7 to 29.6%

input: Any idea what its inhibition is? The molecule is `Cc1ccc(S(=O)(=O)NC[C@@H](O)C[C@@H](Cc2ccccc2)C(=O)N[C@H]2c3ccccc3C[C@H]2O)cc1`
output: 62.3 to 94.1%

input: Any idea what its inhibition is? The molecule is `CC(C)C(=O)Nc1ccc(S(=O)(=O)NC[C@@H](O)C[C@@H](Cc2ccccc2)C(=O)N[C@H]2c3ccccc3C[C@H]2O)cc1`
output: 4.6 to 5.3%
